Just for reference, the domain aggregation screens of Martell et al. (2025) is where these values come from.

Catalogue of soluble fraction (log2) values
Test: soluble fraction after stress (log2 fold change); higher = more stays soluble; pooled small domains, quantitative proteomics
Settings: stress: 50 degC

{"primary_sequence": "HMINVLTPKQIEATTIAVKYGYYENPRTVSMRELSEISGIARSTLQEHLSKAEAALMILAAKSQL", "soluble fraction (log2)": -0.338}
{"primary_sequence": "HMSKPVYILINKPKGFLASSTDKKVKKSVNDLINISNLNKIYPFDNMGRTSSGLLLLSNDLYFKKHFKDKI", "soluble fraction (log2)": 0.341}
{"primary_sequence": "HMKLTTRQTEIINIVKAEQPISGEKIAQNLGLSRATLRNDLSILTMTGLLDAKPKVGYFYTGQ", "soluble fraction (log2)": -0.447}
{"primary_sequence": "HMQAPHLALSPREFQVLQGLLAGDALDIIAERLHLSAKTVSNHQTLIRQKLGVGNAVELLRYAQLHRL", "soluble fraction (log2)": -2.15}
{"primary_sequence": "HMPELSNNLDRDKVALKNFNESLKDGLTPAEAYANHLTNVSKAAQEAARQSNGLPVDIDKYHNSQLAASMA", "soluble fraction (log2)": 0.273}
{"primary_sequence": "HMDNPYEVFIPNSYIGQRLDQTLASLFPQFSRSRLQNWLASGNLLVNGKIVKPKTKILGGEQINILDPYN", "soluble fraction (log2)": -0.339}
{"primary_sequence": "HMDEAAGVLTQLRAFIAASNLSPGLRLPPERELAEQLGVTRAELRKALAVLEAEGLLWRQVGKGTFYGARP", "soluble fraction (log2)": -0.481}
{"primary_sequence": "HMNILNYIIENENQEVRVDKFLSDTIEDMSRSSVASIIEDGGLLVNDKLQNKKYKLKIGDKVQFTVPDPV", "soluble fraction (log2)": 0.113}
